Target: HIV TAR RNA
Assay: Gel shift assay (EMSA) with fluorescein-labeled TAR RNA in the presence of poly(dI-dC)
Assay type: binding
Conditions: in the presence of poly(dI-dC) at 25° C., Table 3; read-out: KD, dissociation constant of Tat-peptide and TAR RNA by gel shift assay
Description: The fluorescein-labeled TAR RNA (F-TAR-RNA) was purchased from Sigma. F-TAR-RNA was dissolved in diethyl pyrocarbonate treated H2O to give a 50 μM solution. Binding assays were performed at room temperature. […] The samples were analyzed by loading into 12% native polyacrylamide gels in […] and electrophoresis was performed with 140 V at room temperature. […] Bands corresponding to the free and bound RNA were quantified using ImageQuant software. […]
pKd: −log10 of the molar value.
The following substances are shown together with reported pKd values.
endpointLabel: pKd

1) Ac-Tyr-Gly-Arg-Lys-Lys-Arg-Cit-Gln-Arg-Arg-Arg-NH2 [Tat-Cit53]	6.46
2) Ac-Tyr-Gly-Arg-Lys-Lys-Cit-Arg-Gln-Arg-Arg-Arg-NH2 [Tat-Cit52]	6.63
3) Ac-Tyr-Gly-Arg-Lys-Lys-Arg-Arg-Gln-Arg-Arg-Cit-NH2 [Tat-Cit57]	6.84
4) Ac-Tyr-Gly-Cit-Lys-Lys-Arg-Arg-Gln-Arg-Arg-Arg-NH2 [Tat-Cit49]	6.86
5) Ac-Tyr-Gly-Arg-Lys-Lys-Arg-Arg-Gln-Cit-Arg-Arg-NH2 [Tat-Cit55]	6.55
6) Ac-Tyr-Gly-Arg-Lys-Lys-Arg-Arg-Gln-Arg-Cit-Arg-NH2 [Tat-Cit56]	6.79
